Assay: NCI Yeast Anticancer Drug Screen. Data for the bub3 strain (AID 167)
Details: S. cerevisiae bub3 mutant strain, at 50.0 µM, active compounds read high
Compounds without any hit were thinned out: in the full panel of roughly 79,000, 15% have a hit.
Parameter: growth inhibition (%)
The figure you give is taken to be in %; do not add the unit.

{"Compound": "CN(C)Cc1cc(C=O)cc(CN(C)C)c1O", "growth inhibition [%]": 10.7}
{"Compound": "COC(=O)c1nc2nnc(N)n2c(-c2ccc(Cl)cc2)c1C", "growth inhibition [%]": -4.35}
{"Compound": "COc1ccc(N2C(=O)C3c4[nH]c5ccccc5c4C4CCCCCCCCCC4C3C2=O)cc1 (stereo unspecified)", "growth inhibition [%]": -15.3}
{"Compound": "CCC(C(=O)O)C(C)(C)O (stereo unspecified)", "growth inhibition [%]": -0.85}
{"Compound": "ClCCCCCOCCCCCCl", "growth inhibition [%]": -4.75}

Annotate the compound "CCOC(=O)C(=C/C=C/NCCc1c[nH]c2ccccc12)C(=O)OCC" with its measured growth inhibition. -15.2

Return growth inhibition for the following compound: "CC1(C)SCCNC1=O" 15.8

// fetch growth inhibition given entry "COc1ccc(/C=C/C(=O)N(C)C)cc1" -2.5

Hello, please tell me recorded growth inhibition for this one: Cc1ccc(S(=O)c2cccs2)cc1 (stereo unspecified) -18

Report growth inhibition, nothing else, for this compound: "Cc1cccc(NC(=O)C(Cl)Cl)n1" -1.95

Find the measured growth inhibition of "CCCCCCCNC(=O)C(Cl)Cl" and report it. 39.8

* * *

Entries and their growth inhibition
Assay: NCI Yeast Anticancer Drug Screen. Data for the mec2-1 strain (AID 157)
Conditions: S. cerevisiae mec2-1 strain, at 50.0 µM, active compounds read high
Compounds without any hit were thinned out: in the full panel of roughly 79,000, 15% have a hit. Activity calls are given as the source filed them. Cut-off read from the data, not from the text of the source: active = growth inhibition above about 70%; inactive = the rest.

Return reported growth inhibition. Input molecule: CCNC(=O)C1Cc2ccccc2N(CC)C1 (stereo not drawn) -6.65% (inactive)

* * *

A collection of compounds and their measured growth inhibition
Test: NCI Yeast Anticancer Drug Screen. Data for the mec2-1 strain (AID 157)
Conditions: S. cerevisiae mec2-1 strain, at 50.0 µM, active compounds read high
About 79,000 compounds went through this panel and 15% of them were active in at least one assay; those are over-represented in the sample as a whole.
Numeric answer only, unit % assumed.

Completed entries (count: 8):
{"Compound": "CCC(C(=O)NC(C)c1ccc(-c2ccccc2)cc1)c1ccccc1 (centres undefined)", "Unit Text": "%", "Result Number": 7.55}
{"Compound": "CC1(C)C2CC3C(C2)C31C", "Unit Text": "%", "Result Number": 3.6}
{"Compound": "CCOC(=O)CCC(=O)OCC", "Unit Text": "%", "Result Number": 7.05}
{"Compound": "COc1cc(C2SCC(=O)N2NC(=O)c2ccc(NC(C)=O)cc2)cc(OC)c1OC (centres undefined)", "Unit Text": "%", "Result Number": -3.95}
{"Compound": "Cc1ccc(S(=O)(=O)OCC2CC=CCC2COC(=O)c2ccc([N+](=O)[O-])cc2)cc1 (centres undefined)", "Unit Text": "%", "Result Number": -5.55}
{"Compound": "CCN(CC)C(=O)C1CCCCN1 (centres undefined)", "Unit Text": "%", "Result Number": 2.6}
{"Compound": "CN1c2ccccc2Sc2cc(/C=C3/SC(=S)NC3=O)ccc21", "Unit Text": "%", "Result Number": 4.6}
{"Compound": "O=C(O)C(Oc1ccc(Cl)cc1Cl)C(Oc1ccc(Cl)cc1Cl)C(=O)O (centres undefined)", "Unit Text": "%", "Result Number": -4.1}

Consider the additional compound presented here.
Quickly give me recorded growth inhibition for CCOC(=O)C(Cl)(NC(=O)NC(Cl)(C(=O)OCC)C(F)(F)F)C(F)(F)F (centres undefined) 23.8

* * *

Assay: NCI Yeast Anticancer Drug Screen. Data for the bub3 strain (AID 167)
Details: S. cerevisiae bub3 mutant strain, at 50.0 µM, active compounds read high
About 79,000 compounds went through this panel and 15% of them were active in at least one assay; those are over-represented in the sample as a whole.
growth inhibition overview
Report only the number, with the unit % understood.

{"Compound": "N#CCCC(CC#N)S(=O)(=O)O (stereo not given)", "growth inhibition (%)": 15.7}
{"Compound": "O=C1SCC(O)=C1/C=N/Nc1nc2ccccc2o1", "growth inhibition (%)": 13.2}

Supply reported growth inhibition belonging to this compound: "Oc1ccccc1/C=N/n1cnnc1" -10.3

Indicate the recorded growth inhibition value for this compound: "O=C(O)c1c[nH]c2cc(OCc3ccc(Br)cc3)ccc2c1=O" 2.5

Respond only with growth inhibition recorded for "C1C[O][Ge]2([O]1)[O]CC[O]2" -13.2

Give the value of growth inhibition reported for the following: "Cc1nc(Cc2ccc(O)c(O)c2)c(C)o1" -18

# return recorded growth inhibition for entry "O=[n+]1c2c(n([O-])c3ccccc31)CCCCC2" -8.35

* * *

Experiment: NCI Yeast Anticancer Drug Screen. Data for the mec2-1 strain (AID 157)
Conditions: S. cerevisiae mec2-1 strain, at 50.0 µM
Compounds without any hit were thinned out: in the full panel of roughly 79,000, 15% have a hit. Activity calls are given as the source filed them. Rule as the data show it: active = growth inhibition above about 70%; inactive = the rest.
Classes to choose from: active, inactive

Please review the following examples before continuing.
{"Compound": "CC([C@H](c1ccccc1)C1CCC(C(N)=O)(N2CCOCC2)C1)[N+](=O)[O-] (some centres not stated)", "Class Name": "inactive"}
{"Compound": "Clc1ccc([I+]c2ccc(Cl)cc2)cc1", "Class Name": "active"}
{"Compound": "CC1OC(OC2C(OC3C[C@@]4(C)C(C[C@H](O)[C@H]5[C@H](C6(C)CCC(C(C)(C)O)O6)CCC54C)[C@]4(C)CC[C@@H](O)C(C)(C)C34)OC(CO)C(O)C2O)C(O)C(O)C1O (some centres not stated) (tested in a mixture with another compound)", "Class Name": "inactive"}
{"Compound": "O/N=C1/CCCCc2ccccc21", "Class Name": "inactive"}
{"Compound": "COc1cc(C)cc(OC)c1/C=C/C(=O)O", "Class Name": "inactive"}
{"Compound": "CCOC(=O)c1cnc(SC)nc1Nc1ccc(OC)cc1", "Class Name": "inactive"}
{"Compound": "O=C(Cn1cc(I)c(C(=O)NCC(O)CO)n1)NCC(O)CO (configuration not stated)", "Class Name": "inactive"}
{"Compound": "O=c1c2ccccc2nc(-c2ccccc2)n1-c1cc(C(F)(F)F)cc(C(F)(F)F)c1", "Class Name": "inactive"}

Please share the test call associated with "COc1cccc(C(=O)O)c1[N+](=O)[O-]" . inactive

Query: recorded result category for "CC(C)C(=NNC(N)=O)C(C)C" in this test inactive

Hi team, can someone confirm the assay call for "Cc1c(O)cc(O)c(C=O)c1C" ? inactive

Lab log entry: "NC(=O)c1ncn2c(=O)n(CCl)nnc12" — outcome as called in the assay? active

* * *

Parameter growth inhibition: see the listing below.
Test: NCI Yeast Anticancer Drug Screen. Data for the mlh1 rad18 strain (AID 175)
Settings: S. cerevisiae mlh1 rad18 strain growth inhibition; at 50.0 µM; active compounds read high
About 79,000 compounds went through this panel and 15% of them were active in at least one assay; those are over-represented in the sample as a whole.
Report as a plain number; the unit % is understood.

{"Molecule": "S=C(NCc1cccc2ccccc12)Nc1ccccc1", "Unit Text": "%", "Result Number": 20.9}
{"Molecule": "O=P1(c2ccccc2)C(c2ccccc2)=CC=C1c1ccccc1", "Unit Text": "%", "Result Number": 31.2}

Answer with the recorded growth inhibition for the molecule listed here: "COc1cc(CCCO)ccc1O" -4.1

Note down growth inhibition recorded for "CC(C)C(N)=O" -9.25

Give the measured growth inhibition for "Cc1cc(N/N=C/c2ccnc3ccccc23)c2cc3c(cc2n1)OCO3" 20.9

* * *

Entries and their measured growth inhibition follow.
Experiment: NCI Yeast Anticancer Drug Screen. Data for the sgs1 mgt1 strain (AID 161);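 further: 0% = growth of cultures given vehicle only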
Conditions: S. cerevisiae sgs1 mgt1 strain, at 50.0 µM, active compounds read high
Procedure: Growth inhibition of yeast strains with defined genetic alterations is measured as a screen for potential anti-cancer activity. Selected strains with alterations in DNA damage repair or cell cycle control were exposed to compounds and growth inhibition was measured relative to vehicle treated controls. The strain used in this assay is sgs1 mgt1
About 79,000 compounds went through this panel and 15% of them were active in at least one assay; those are over-represented in the sample as a whole.
Give the value in % but do not write % after it.

Illustrative cases are given below, each with its answer.
{"Compound": "O=C(NCSC1=NCCS1)NCSC1=NCCS1", "growth inhibition (%)": 6.85}
{"Compound": "O=C1OC(C(O)C(O)C(O)CO)C(O)C1O (stereo not drawn)", "growth inhibition (%)": -11.7}
{"Compound": "CCC(C)CCC(N)C(=O)O (stereo not drawn)", "growth inhibition (%)": -3.95}
{"Compound": "CCCCCSC", "growth inhibition (%)": 11.2}
{"Compound": "CN(C)c1ccc(C=C2C(=O)OC(C)(C)OC2=O)cc1Br", "growth inhibition (%)": -4.1}

Give a short answer stating reported growth inhibition for "CCCOc1ncnc2nc[nH]c12" . 1.55

Look up and state reported growth inhibition for CC(=O)C1OC1c1ccccn1 (stereo not drawn) -9.5

Consider the compound "CCCNC(=O)c1nc(SC)sc1NC(=O)c1ccccc1" and give its recorded growth inhibition. -50.1
